# Tested on: CHL cells
# assay_comment: Chromosomal aberration test with a Chinese hamster lung cell line (CHL)
# Type: cell-based
# Protocol: The chromosomal aberration test was conducted with a Chinese hamster lung cell line (CHL). 2-(2-Furyl)-3-(5-nitro-2-furyl)acrylamide was used as a positive control. Cells treated with the test compounds were cultured for 6 h at 37° C. in 5% CO2 -humidified air. Following the 6 h treatment the cells were washed. Fresh medium was added to the washed cells and they were cultured for a further 18 h. […]
quantity_measured: toxicity (chromosomal aberration), in words

| compound | measured |
| --- | --- |
| Cc1c(N2C[C@@H](N)C3(CC3)C2)c(F)cc2c(=O)c(C(=O)O)cn(C3CC3)c12 [Reference Compound C] | observed |
| Nc1c(F)c(N2CC[C@H](N)C2)cc2c1c(=O)c(C(=O)O)cn2C1CC1 [Reference Compound E] | observed |
| Cc1c(N2C[C@@H](N)C3(CC3)C2)c(F)c(N)c2c(=O)c(C(=O)O)cn(C3CC3)c12 [Example 10] | did not show |
| Cc1c(N2CC[C@H](N)C2)c(F)cc2c(=O)c(C(=O)O)cn(C3CC3)c12 [Reference Compound F] | observed |
| Cc1c(N2CC[C@H](N)C2)c(F)c(N)c2c(=O)c(C(=O)O)cn(C3CC3)c12.Cl [Example 12] | did not show |
